# Tested on: SN12C renal
# protocol: NCI tumour cell line growth inhibition, 48 h; in the data active = GI50 below about 0.43 µM; inactive = the rest
Select the correct class. Options are YES for active, NO for inactive and nothing else.

Status in this test for "COc1ccc2c(CNCCCCO)cc3cc4c(cc3c2c1)OCO4" ?
NO

Status in this test for "O=C1c2cccnc2-c2nc(-c3ccc([N+](=O)[O-])cc3)cc3c2c1nc1ccccc13" ?
NO

Status in this test for "Cn1c(=O)c(Cc2ccc(F)cc2F)cc2cnc(NC3CCOCC3)nc21" ?
NO

Status in this test for "O=C1NC(=NCCc2ccccc2Cl)S/C1=C\c1ccc2ncccc2c1" ?
NO

Status in this test for O=C(NC(=S)NS(=O)(=O)c1ccc(N2N=C3c4ccccc4CC3C2c2cccs2)cc1)c1ccccc1 (configuration not stated) ?
NO

Status in this test for "CC(C)[C@]12O[C@H]1[C@@H]1O[C@]13[C@]1(O[C@H]1C[C@H]1c4c(C(=O)c5ccccc5)oc(OC(=O)c5ccccc5)c4CC[C@@]13C)[C@@H]2O" ?
YES

Status in this test for "COc1cc(-c2ccc(-c3ccc(C(=N)N)s3)s2)cc(OC)c1OC" ?
NO

---

# System: OVCAR-4 ovarian
# protocol: NCI tumour cell line growth inhibition, 48 h
Assign GI50 to each entry below.

Looking for the measured GI50 of "Cc1ccc(/C=C(\C#N)n2nnc3cc(F)c(F)cc32)cc1" , can you help?
2.58 µM

Looking for the measured GI50 of "O=[N+]([O-])c1ccc2[nH]cc(-c3c4ccccc4cc4[nH]c5ccc([N+](=O)[O-])cc5c34)c2c1" , can you help?
1.57 µM

Looking for the measured GI50 of "O=C1c2cccnc2-c2nc(-c3ccc([N+](=O)[O-])cc3)cc3c2c1nc1ccccc13" , can you help?
13.4 µM

Looking for the measured GI50 of "N#Cc1c2ccccc2c2nnc3cc(Cl)c(Cl)cc3n12" , can you help?
40.8 µM

Looking for the measured GI50 of "O=C1NC(=NCCc2ccccc2Cl)S/C1=C\c1ccc2ncccc2c1" , can you help?
4.26 µM

Looking for the measured GI50 of "N#C/C(=C/N1CCN(C(=O)c2ccco2)C1=S)C(N)=O" , can you help?
18.5 µM

Looking for the measured GI50 of "C=C1C(=O)O[C@H]2[C@H]1CC/C(Cn1cc(CCC)nn1)=C\CC[C@@]1(C)O[C@@H]21" , can you help?
9.46 µM

Looking for the measured GI50 of "Cc1ccc(/C=C2\CCOC2=O)cc1" , can you help?
> 100 µM

Looking for the measured GI50 of "COc1ccc(-n2c(N)c(C(=O)NCCN3CCOCC3)c3nc4ccccc4nc32)cc1OC" , can you help?
68.5 µM

Looking for the measured GI50 of "Cn1c(=O)c(Cc2ccc(F)cc2F)cc2cnc(NC3CCOCC3)nc21" , can you help?
> 21.7 µM

---

# Tested on: A549 NSCLC
# protocol: NCI tumour cell line growth inhibition, 48 h
outcome measure: TGI

Looking for the measured TGI of "O=c1c2ccccc2nc(-c2ccc(Cl)cc2)n1O" , can you help?
> 100 µM

Looking for the measured TGI of "CC(C)(C)c1ccc(-c2nnc(SCc3ccc(Cl)cc3)n2-c2cccc(C(F)(F)F)c2)cc1" , can you help?
> 100 µM

Looking for the measured TGI of "CCOC(=O)C1(C(=O)OCC)C[C@H]2CON=C2[C@@H]1c1ccc(C(F)(F)F)cc1" , can you help?
> 100 µM

Looking for the measured TGI of "O=[N+]([O-])c1ccc2[nH]cc(-c3c4ccccc4cc4[nH]c5ccc([N+](=O)[O-])cc5c34)c2c1" , can you help?
4.8 µM

Looking for the measured TGI of "Brc1ccc(-c2ccc(-c3ccc(Br)s3)s2)s1" , can you help?
> 100 µM
